From: patent US20240287154A1

Listed here: items and their measured MC3R cAMP (EC50).
target: human MC3R (human, UniProt P41968 1-323); assay: cell-based or functional assay
Sequence (P41968 whole entry): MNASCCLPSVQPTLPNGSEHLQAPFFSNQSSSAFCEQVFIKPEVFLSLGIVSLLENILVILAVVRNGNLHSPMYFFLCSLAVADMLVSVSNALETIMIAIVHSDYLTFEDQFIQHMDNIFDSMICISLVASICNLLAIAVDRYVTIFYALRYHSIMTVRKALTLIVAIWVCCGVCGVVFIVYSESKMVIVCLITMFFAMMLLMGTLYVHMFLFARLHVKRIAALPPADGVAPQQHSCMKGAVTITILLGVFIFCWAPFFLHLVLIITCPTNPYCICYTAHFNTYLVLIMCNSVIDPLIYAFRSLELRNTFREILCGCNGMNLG
Non-standard residues stand in square brackets, D forms with d. Nle = CCCC[C@H](N)C(=O)O

binder	MC3R cAMP (EC50) [nM]
Ac-[Nle][dA]HFR[dW]D[dR]FG-OH (SMILES CCCC[C@H](NC(C)=O)C(=O)N[C@H](C)C(=O)N[C@@H](Cc1c[nH]cn1)C(=O)N[C@@H](Cc1ccccc1)C(=O)N[C@@H](CCCNC(=N)N)C(=O)N[C@H](Cc1c[nH]c2ccccc12)C(=O)N[C@@H](CC(=O)O)C(=O)N[C@H](CCCNC(=N)N)C(=O)N[C@@H](Cc1ccccc1)C(=O)NCC(=O)O) [CTX-1146]	170
YVXGRFRWDRFG (Nle at 3; D-Trp at 8) [CTX-1549]	2.4
Ac-TGH[dF]R[dW]D-NH2 (SMILES CC(=O)N[C@H](C(=O)NCC(=O)N[C@@H](Cc1c[nH]cn1)C(=O)N[C@H](Cc1ccccc1)C(=O)N[C@@H](CCCNC(=N)N)C(=O)N[C@H](Cc1c[nH]c2ccccc12)C(=O)N[C@@H](CC(=O)O)C(N)=O)[C@@H](C)O) [CTX-1113]	4430
